assay.procedure: chemical genetic growth profiling, strain panel (AID 1159580);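 note: tested at 20 µM; growth read once vehicle control cultures reached saturation at 30 °C; 1 = growth at the plate median or of vehicle wells; lower values mean less growth of the strain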
details: S. cerevisiae deletion strains, growth OD, locus YDR001C, strain nth1, hits give low values
Hit rate of the full screen: of about 5,500 compounds, about 2,000 (36%) were called active. Roughly 18% stayed inconclusive and do not appear here. This is one part of the list.
endpoint.name: normalized growth

Could I get normalized growth for every one of these entries?
1. Nc1ccc(C(=O)O)cc1
2. O=C(O)c1ccccc1
3. CC(C)c1ccc2c(c1)CCC1C(C)(C(N)=O)CCCC21C (stereo not given)
4. CCCSc1ccc2nc(NC(=O)OC)[nH]c2c1

Return:
1. 1 (inactive)
2. 0.973 (inactive)
3. 0.948 (inactive)
4. 1.01 (inactive)

The reported numbers originate from PubChem BioAssay AID1159580.
